# method: self-splicing fitness, log relative to wild type (ln ratio); higher = more splicing; Tetrahymena group I intron in knt gene, E. coli kanamycin selection, DiMSum; sequences stand for … in CUCUCU…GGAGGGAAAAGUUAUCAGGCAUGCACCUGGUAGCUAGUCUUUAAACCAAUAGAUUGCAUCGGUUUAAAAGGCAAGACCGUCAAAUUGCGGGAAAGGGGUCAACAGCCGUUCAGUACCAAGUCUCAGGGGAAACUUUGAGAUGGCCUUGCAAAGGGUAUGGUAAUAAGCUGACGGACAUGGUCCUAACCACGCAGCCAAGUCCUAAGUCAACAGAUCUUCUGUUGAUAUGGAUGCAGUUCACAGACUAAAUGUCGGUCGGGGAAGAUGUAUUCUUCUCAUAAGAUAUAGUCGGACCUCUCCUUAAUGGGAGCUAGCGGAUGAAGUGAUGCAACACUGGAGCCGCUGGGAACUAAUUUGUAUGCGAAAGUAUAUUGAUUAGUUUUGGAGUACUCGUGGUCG;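 further: selection with 25 µg/mL kanamycin versus none on LB agar overnight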
# statedConditions: 37 °C
measureName: self-splicing fitness (ln)

Input CGCAAGCAAUAUUACGGCAU . Output self-splicing fitness (ln): -0.555

Please fill in: self-splicing fitness (ln) reported for GCAAAGCAAUAUUACGCACU = 0.031

Per the records, this sequence ( GCGGAGCAAUAUUACGUGUC ) has self-splicing fitness (ln) equal to -1.06

So for AUACAGCAAUAUUACGAAUA , the logged self-splicing fitness (ln) turned out to be -0.987

Lab book: self-splicing fitness (ln) of GCGCAGCAAUAUUACGCGCA noted as 0.322

Lab note: UAAAAGCAAUAUUACGUGGC gave self-splicing fitness (ln) of -2.74

----------
Documented self-splicing fitness (ln) across a set of sequences
# method: self-splicing fitness, log relative to wild type (ln ratio); higher = more splicing; Tetrahymena group I intron in knt gene, E. coli kanamycin selection, DiMSum; sequences stand for … in CUCUCU…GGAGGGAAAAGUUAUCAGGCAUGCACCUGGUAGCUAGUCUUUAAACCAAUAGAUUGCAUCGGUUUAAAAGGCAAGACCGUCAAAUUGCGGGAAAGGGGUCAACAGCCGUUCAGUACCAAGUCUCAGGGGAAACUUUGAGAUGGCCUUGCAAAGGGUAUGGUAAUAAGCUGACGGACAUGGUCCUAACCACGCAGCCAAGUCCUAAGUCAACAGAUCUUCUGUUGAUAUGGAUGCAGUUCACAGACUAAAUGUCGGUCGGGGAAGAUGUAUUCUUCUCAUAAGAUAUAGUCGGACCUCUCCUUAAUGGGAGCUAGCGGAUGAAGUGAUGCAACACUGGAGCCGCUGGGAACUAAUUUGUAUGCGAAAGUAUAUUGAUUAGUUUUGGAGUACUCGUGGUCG
# statedConditions: 37 °C

For UUACAGCAAUAUUACGCCUA the sequence record lists self-splicing fitness (ln) as 0.542

Per the record, UGACAGCAAUAUUACGUGUA has self-splicing fitness (ln) of -0.841

self-splicing fitness (ln) for GCUCAGCAAUAUUACGUCUA is -0.494

----------
# method: self-splicing fitness, log relative to wild type (ln ratio); higher = more splicing; Tetrahymena group I intron in knt gene, E. coli kanamycin selection, DiMSum; sequences stand for … in CUCUCU…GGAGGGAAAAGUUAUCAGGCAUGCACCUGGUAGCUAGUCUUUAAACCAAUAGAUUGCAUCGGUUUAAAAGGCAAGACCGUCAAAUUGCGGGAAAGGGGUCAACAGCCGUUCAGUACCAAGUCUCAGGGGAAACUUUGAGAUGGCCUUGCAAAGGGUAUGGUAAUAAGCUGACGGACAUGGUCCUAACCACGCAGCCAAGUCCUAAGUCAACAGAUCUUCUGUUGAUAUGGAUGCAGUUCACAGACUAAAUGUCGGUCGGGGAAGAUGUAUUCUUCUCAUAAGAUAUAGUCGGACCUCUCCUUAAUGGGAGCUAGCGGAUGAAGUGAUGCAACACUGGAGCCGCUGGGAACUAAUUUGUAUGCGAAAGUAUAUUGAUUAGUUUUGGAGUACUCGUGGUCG
# statedConditions: 30 °C
// reported self-splicing fitness (ln) per item
Enter the number alone.

The examples below pair each entry with its known result.
UUGCAGCAAUAUUACGGUUU ... -1.37
ACCUAGCAAUAUUACGCUAC ... -2.93
AUAAAGCAAUAUUACGCAGA ... -1.87
GAUUAGCAAUAUUACGGCUC ... 0.285
UCUGAGCAAUAUUACGUUAG ... -2.36

Lab book: self-splicing fitness (ln) of CCGCAGCAAUAUUACGCCCG noted as -0.205

self-splicing fitness (ln) for CUCUAGCAAUAUUACGACAU is -3.87

self-splicing fitness (ln) measured on ACCCAGCAAUAUUACGGCCU = -0.518

# self-splicing fitness (ln) of GUAAAGCAAUAUUACGCUGU = -0.603

Consider CCCAAGCAAUAUUACGGACC . Its measured self-splicing fitness (ln) is -2.96

----------
# method: self-splicing fitness, log relative to wild type (ln ratio); higher = more splicing; Tetrahymena group I intron in knt gene, E. coli kanamycin selection, DiMSum; sequences stand for … in CUCUCU…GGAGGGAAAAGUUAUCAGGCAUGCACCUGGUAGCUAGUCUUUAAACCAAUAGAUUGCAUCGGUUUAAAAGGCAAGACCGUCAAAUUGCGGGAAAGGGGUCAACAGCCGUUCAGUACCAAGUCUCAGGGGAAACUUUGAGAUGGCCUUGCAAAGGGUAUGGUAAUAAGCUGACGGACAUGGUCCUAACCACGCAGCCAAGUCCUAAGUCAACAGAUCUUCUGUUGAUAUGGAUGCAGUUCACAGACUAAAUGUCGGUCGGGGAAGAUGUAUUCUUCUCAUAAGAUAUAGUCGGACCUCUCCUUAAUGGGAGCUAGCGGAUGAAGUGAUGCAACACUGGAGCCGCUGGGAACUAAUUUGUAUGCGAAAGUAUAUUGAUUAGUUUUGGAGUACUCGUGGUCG
# statedConditions: 30 °C
Class membership depends on self-splicing fitness (ln) alone; the intervals are band A: < -3; band B: ≥ -3 and < -1; band C: ≥ -1

CGCAAGCAAUAUUACGGCAU ... band B
GACGAGCAAUAUUACGGCAA ... band B
GAGCAGCAAUAUUACGACAU ... band B
AGAAAGCAAUAUUACGCACA ... band C
AACAAGCAAUAUUACGCUCC ... band B
AUAUAGCAAUAUUACGCUCA ... band C
ACUGAGCAAUAUUACGGGGA ... band B
CUAAAGCAAUAUUACGAAUG ... band C

Task: Given UGAAAGCAAUAUUACGAGGA , name the class its self-splicing fitness (ln) places it in.
Result: band A

Task: Form: Item = AGACAGCAAUAUUACGUUCU ; Class = ?
Result: band A

Task: Which category fits this record: AUCGAGCAAUAUUACGGCCU
Result: band A

Task: Note: place this sequence into its band. Item: UUGCAGCAAUAUUACGUUGA
Result: band B

Task: Into which category would you place GCGUAGCAAUAUUACGACGC ?
Result: band A

Task: For this sequence, which bin applies? AUCCAGCAAUAUUACGAGUA
Result: band B

Task: Band of UGAGAGCAAUAUUACGGCAU ?
Result: band B

Task: Determine which band this sequence sits in: GUUCAGCAAUAUUACGACAG
Result: band A

Task: The entry to classify is CCUAAGCAAUAUUACGAUAC ; which class holds it?
Result: band A

Task: State the class of the sequence shown: CCAGAGCAAUAUUACGAUAC
Result: band B

----------
# method: self-splicing fitness, log relative to wild type (ln ratio); higher = more splicing; Tetrahymena group I intron in knt gene, E. coli kanamycin selection, DiMSum; sequences stand for … in CUCUCU…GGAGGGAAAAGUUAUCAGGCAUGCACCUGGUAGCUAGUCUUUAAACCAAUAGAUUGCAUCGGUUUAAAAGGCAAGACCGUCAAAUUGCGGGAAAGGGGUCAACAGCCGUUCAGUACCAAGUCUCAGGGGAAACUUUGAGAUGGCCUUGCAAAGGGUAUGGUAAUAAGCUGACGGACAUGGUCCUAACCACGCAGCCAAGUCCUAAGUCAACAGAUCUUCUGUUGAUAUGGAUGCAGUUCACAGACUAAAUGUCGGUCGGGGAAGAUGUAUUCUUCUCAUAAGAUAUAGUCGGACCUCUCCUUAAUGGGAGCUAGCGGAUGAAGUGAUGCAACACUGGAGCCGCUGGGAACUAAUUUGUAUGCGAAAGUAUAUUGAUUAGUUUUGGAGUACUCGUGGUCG
# statedConditions: 37 °C
Lab note: compare self-splicing fitness (ln) against -0.6. Equal or greater, write true. Smaller, write false.

UAUUAGCAAUAUUACGGGGU ... false
UCGCAGCAAUAUUACGGACU ... true
UCGCAGCAAUAUUACGGUUC ... false

Task: Given UGGUAGCAAUAUUACGUAGA , state whether its self-splicing fitness (ln) is at least -0.6.
Result: false

Task: // inclusive: self-splicing fitness (ln) at least -0.6? input: CUUAAGCAAUAUUACGUGAG
Result: false

Task: Could you verify whether the entry AUUAAGCAAUAUUACGCGGA shows self-splicing fitness (ln) of no less than -0.6?
Result: true
